Numbers sourced from patent US12371454B2.

molecular target: Kras and SOS1 (biotin-tagged human Kras loaded with GDP, His-tagged human SOS1) (Homo sapiens, UniProt P01116, G12D); construct: made in house; host or cells: E. coli (stated for Kras only); assay: Protein-protein interaction inhibition between Kras and SOS1 (KrasGl2D-SOS PPI) using AlphaScreen; assay type: binding; settings: AlphaScreen; biotin-tagged human Kras loaded with GDP, His-tagged human SOS1; read-out: KRAS G12D-SOS PPI IC50
Sequence (P01116 1-188 isoform P01116-2 G12D): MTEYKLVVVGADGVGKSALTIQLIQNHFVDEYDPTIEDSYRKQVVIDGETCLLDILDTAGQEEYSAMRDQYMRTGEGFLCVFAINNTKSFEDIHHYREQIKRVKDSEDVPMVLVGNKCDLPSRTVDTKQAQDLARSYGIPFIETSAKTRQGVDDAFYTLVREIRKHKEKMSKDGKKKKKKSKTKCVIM
Starred links: 1 amine or outer side, 2 acyl side, 3 side chain; linkers in the order of their positions; H or OH if unused. Positions of bridges follow the written chain, without caps; N, C: chain ends. Non-standard residues stand in square brackets, D forms with d. Residues, ends and D or L forms follow the SMILES beside them. *: point of attachment. hPhe(3-Cl-4-CF3) = N[C@@H](CCc1ccc(C(F)(F)F)c(Cl)c1)C(=O)O; NMeGly(cPent) = CN[C@H](C(=O)O)C1CCCC1; NMeCha = CN[C@@H](CC1CCCCC1)C(=O)O; NMeChg = CN[C@H](C(=O)O)C1CCCCC1; NMeβAla = CN(CCC(=O)[*:2])[*:1]; Piperidide(4-Me) = CC1CCN(*)CC1; NMeD = CN[C@@H](CC(=O)O)C(=O)O; NMeL = CN[C@@H](CC(C)C)C(=O)O; NMeS = CN[C@@H](CO)C(=O)O; Ac5c = NC1(C(=O)O)CCCC1; CH2CMe2OH = CC(C)(O)C*; Sar = CNCC(=O)O
Below, each entry is listed with its recorded IC50.
experimental endpoint: IC50

# compound, experimental endpoint, result
rows = [
    ("CC[C@H](C)[C@@H]1NC(=O)CCN(C)C(=O)[C@H](COCC(C)(C)O)N(C)C(=O)[C@H](C2CCCC2)N(C)C(=O)C2(CCCC2)NC(=O)[C@@H]2CCCN2C(=O)[C@H](CCc2ccc(C(F)(F)F)c(Cl)c2)NC(=O)CN(C)C(=O)[C@H](CC2CCCCC2)N(C)C(=O)CN(C)C(=O)CN(C)C1=O [Compound 244] (cyclo([Ac5c][NMeGly(cPent)][NMeS](CH2CMe2OH)[NMeβAla]I[Sar][Sar][NMeCha][Sar][hPhe(3-Cl-4-CF3)]P))", "IC50", "140 nM"),
    ("CC[C@H](C)[C@@H]1NC(=O)[C@H](CC(C)C)N(C)C(=O)C[C@@H](C(=O)N2CCC(C)CC2)N(C)C(=O)[C@H](C2CCCCC2)N(C)C(=O)C2(CCCC2)NC(=O)[C@@H]2CCCN2C(=O)[C@H](CCc2ccc(C(F)(F)F)c(Cl)c2)NC(=O)CN(C)C(=O)[C@H](CC2CCCCC2)N(C)C(=O)CN(C)C(=O)CN(C)C1=O [Compound 1347] ([NMeL]I[Sar][Sar][NMeCha][Sar][hPhe(3-Cl-4-CF3)]P[Ac5c][NMeChg][NMeD]-{Piperidide(4-Me)}; lactam N-11)", "IC50", "1.3 nM"),
]

* * *

Below, each entry is listed with its recorded pIC50.
molecular target: Kras and SOS1 (biotin-tagged human Kras loaded with GDP, His-tagged human SOS1) (Homo sapiens, UniProt P01116, G12D); construct: made in house; host or cells: E. coli (stated for Kras only); assay: Protein-protein interaction inhibition between Kras and SOS1 (KrasGl2D-SOS PPI) using AlphaScreen; type: binding; conditions: AlphaScreen; biotin-tagged human Kras loaded with GDP, His-tagged human SOS1; read-out: KRAS G12D-SOS PPI IC50
pIC50: −log10 of the molar value. Positions of bridges follow the written chain, without caps; N, C: chain ends. Non-standard residues stand in square brackets, D forms with d. Residues, ends and D or L forms follow the SMILES beside them. *: point of attachment. NMeAbu(3,3-F2-piperidino) = CN[C@@H](CCN1CCCC(F)(F)C1)C(=O)O; hPhe(3-Cl-4-CF3) = N[C@@H](CCc1ccc(C(F)(F)F)c(Cl)c1)C(=O)O; NMePhe(4-Me) = CN[C@@H](Cc1ccc(C)cc1)C(=O)O; NMePhe(2-Cl) = CN[C@@H](Cc1ccccc1Cl)C(=O)O; NMeGly(cPent) = CN[C@H](C(=O)O)C1CCCC1; NMeCha = CN[C@@H](CC1CCCCC1)C(=O)O; Ala(cPr) = N[C@@H](CC1CC1)C(=O)O; NMeChg = CN[C@H](C(=O)O)C1CCCCC1; NMeD = CN[C@@H](CC(=O)O)C(=O)O; NMeL = CN[C@@H](CC(C)C)C(=O)O; NMeNva = CCC[C@H](NC)C(=O)O; NMeA = CN[C@@H](C)C(=O)O; Piperidide = C1CCN(*)CC1; Pyrrolidide = C1CCN(*)C1; Ac5c = NC1(C(=O)O)CCCC1; Aze = O=C(O)[C@@H]1CCN1; Sar = CNCC(=O)O
experimental endpoint: pIC50

# compound, quantitative readout
records = [
    ("CC[C@H](C)[C@@H]1NC(=O)[C@H](CC(C)C)N(C)C(=O)C[C@@H](C(=O)N(C)C)N(C)C(=O)[C@H](C2CCCC2)N(C)C(=O)[C@H](C)NC(=O)[C@H](CCN2CCCC(F)(F)C2)N(C)C(=O)[C@H](CCc2ccc(C(F)(F)F)c(Cl)c2)NC(=O)CN(C)C(=O)[C@H](CC2CCCCC2)N(C)C(=O)[C@@H]2CCN2C(=O)[C@H](C)N(C)C1=O [Compound 1081] ([NMeL]I[NMeA][Aze][NMeCha][Sar][hPhe(3-Cl-4-CF3)][NMeAbu(3,3-F2-piperidino)]A[NMeGly(cPent)][NMeD]-NMe2; lactam N-11)", 7.60),
    ("CC[C@H](C)[C@@H]1NC(=O)[C@H](CC(C)C)N(C)C(=O)C[C@@H](C(=O)N(C)C)N(C)C(=O)[C@H](C2CCCC2)N(C)C(=O)C2(CCCC2)NC(=O)[C@H](Cc2ccccc2Cl)N(C)C(=O)[C@H](CCc2ccc(C(F)(F)F)c(Cl)c2)NC(=O)CN(C)C(=O)[C@H](CC2CCCCC2)N(C)C(=O)[C@@H]2CCN2C(=O)[C@H](C)N(C)C1=O [Compound 1009] ([NMeL]I[NMeA][Aze][NMeCha][Sar][hPhe(3-Cl-4-CF3)][NMePhe(2-Cl)][Ac5c][NMeGly(cPent)][NMeD]-NMe2; lactam N-11)", 7.37),
    ("CCC[C@H]1C(=O)N[C@@H]([C@@H](C)CC)C(=O)N(C)CC(=O)N(C)CC(=O)N(C)[C@@H](Cc2ccc(C)cc2)C(=O)N(C)CC(=O)N[C@@H](CCc2ccc(C(F)(F)F)c(Cl)c2)C(=O)N2CCC[C@H]2C(=O)NC2(CCCC2)C(=O)N(C)[C@@H](C2CCCCC2)C(=O)N(C)[C@H](C(=O)N2CCCC2)CC(=O)N1C [Compound 2004] ([NMeNva]I[Sar][Sar][NMePhe(4-Me)][Sar][hPhe(3-Cl-4-CF3)]P[Ac5c][NMeChg][NMeD]-Pyrrolidide; lactam N-11)", 9.48),
    ("CC(C)C[C@H]1C(=O)N[C@@H](CC2CC2)C(=O)N(C)CC(=O)N(C)CC(=O)N(C)[C@@H](CC2CCCCC2)C(=O)N(C)CC(=O)N[C@@H](CCc2ccc(C(F)(F)F)c(Cl)c2)C(=O)N2CCC[C@H]2C(=O)NC2(CCCC2)C(=O)N(C)[C@@H](C2CCCCC2)C(=O)N(C)[C@H](C(=O)N2CCCCC2)CC(=O)N1C [Compound 689] ([NMeL][Ala(cPr)][Sar][Sar][NMeCha][Sar][hPhe(3-Cl-4-CF3)]P[Ac5c][NMeChg][NMeD]-Piperidide; lactam N-11)", 8.68),
]

* * *

biological target: Kras and SOS1 (biotin-tagged human Kras loaded with GDP, His-tagged human SOS1) (Homo sapiens, UniProt P01116, G12D); construct: made in house; host or cells: E. coli (stated for Kras only); assay: Protein-protein interaction inhibition between Kras and SOS1 (KrasGl2D-SOS PPI) using AlphaScreen; type: binding; conditions: AlphaScreen; biotin-tagged human Kras loaded with GDP, His-tagged human SOS1; read-out: KRAS G12D-SOS PPI IC50
pIC50: −log10 of the molar value. Positions of bridges follow the written chain, without caps; N, C: chain ends. Non-standard residues stand in square brackets, D forms with d. Residues, ends and D or L forms follow the SMILES beside them. *: point of attachment. hPhe(3-Cl-4-CF3) = N[C@@H](CCc1ccc(C(F)(F)F)c(Cl)c1)C(=O)O; NMePhe(3-F) = CN[C@@H](Cc1cccc(F)c1)C(=O)O; NMeGly(cPent) = CN[C@H](C(=O)O)C1CCCC1; NMeCha = CN[C@@H](CC1CCCCC1)C(=O)O; NMehLeu = CN[C@@H](CCC(C)C)C(=O)O; NMeChg = CN[C@H](C(=O)O)C1CCCCC1; NMeD = CN[C@@H](CC(=O)O)C(=O)O; dNMeD = CN[C@H](CC(=O)O)C(=O)O; NMeL = CN[C@@H](CC(C)C)C(=O)O; d(β3hP) = O=C(O)C[C@H]1CCCN1; NMeV = CN[C@H](C(=O)O)C(C)C; Trifluoroethyl = FC(F)(F)C*; d(β3hA) = C[C@@H](N)CC(=O)O; NMeA = CN[C@@H](C)C(=O)O; Piperidide = C1CCN(*)CC1; Pyrrolidide = C1CCN(*)C1; Ac5c = NC1(C(=O)O)CCCC1; Aze = O=C(O)[C@@H]1CCN1; Sar = CNCC(=O)O
Below, each entry is listed with its recorded pIC50.

# molecule, pIC50
records = [
    ("CC[C@H](C)[C@@H]1NC(=O)[C@H](CC(C)C)N(C)C(=O)C[C@@H](C)NC(=O)[C@H](C(C)C)N(C)C(=O)C2(CCCC2)NC(=O)[C@@H]2CCCN2C(=O)[C@H](CCc2ccc(C(F)(F)F)c(Cl)c2)NC(=O)CN(C)C(=O)[C@H](Cc2cccc(F)c2)N(C)C(=O)CN(C)C(=O)CN(C)C1=O [Compound 1556] (cyclo([Ac5c][NMeV][d(β3hA)][NMeL]I[Sar][Sar][NMePhe(3-F)][Sar][hPhe(3-Cl-4-CF3)]P))", 7.77),
    ("CC[C@H](C)[C@@H]1NC(=O)[C@H](CC(C)C)N(C)C(=O)C[C@H]2CCCN2C(=O)[C@H](C2CCCCC2)N(C)C(=O)C2(CCCC2)NC(=O)[C@@H]2CCCN2C(=O)[C@H](CCc2ccc(C(F)(F)F)c(Cl)c2)NC(=O)CN(C)C(=O)[C@H](CC2CCCCC2)N(C)C(=O)CN(C)C(=O)CN(C)C1=O [Compound 1185] (cyclo([Ac5c][NMeChg][d(β3hP)][NMeL]I[Sar][Sar][NMeCha][Sar][hPhe(3-Cl-4-CF3)]P))", 7.96),
    ("CC[C@H](C)[C@@H]1NC(=O)[C@H](CC(C)C)N(C)C(=O)C[C@H](C(=O)N2CCCC2)N(C)C(=O)[C@H](C2CCCC2)N(C)C(=O)C2(CCCC2)NC(=O)[C@@H]2CCCN2C(=O)[C@H](CCc2ccc(C(F)(F)F)c(Cl)c2)NC(=O)CN(C)C(=O)[C@H](CC2CCCCC2)N(C)C(=O)CN(C)C(=O)CN(C)C1=O [Compound 1794] ([NMeL]I[Sar][Sar][NMeCha][Sar][hPhe(3-Cl-4-CF3)]P[Ac5c][NMeGly(cPent)][dNMeD]-Pyrrolidide; lactam N-11)", 7.40),
    ("CC[C@H](C)[C@@H]1NC(=O)[C@H](CC(C)C)N(C)C(=O)C[C@@H](C(=O)N2CCCCC2)N(C)C(=O)[C@H](C(C)C)N(C)C(=O)C2(CCCC2)NC(=O)[C@@H]2CCCN2C(=O)[C@H](CCc2ccc(C(F)(F)F)c(Cl)c2)NC(=O)CN(C)C(=O)[C@H](CCC(C)C)N(C)C(=O)[C@@H]2CCN2C(=O)[C@H](C)N(C)C1=O [Compound 1709] ([NMeL]I[NMeA][Aze][NMehLeu][Sar][hPhe(3-Cl-4-CF3)]P[Ac5c][NMeV][NMeD]-Piperidide; lactam N-11)", 8.00),
    ("CC(C)C[C@H]1C(=O)N[C@@H](COCC(F)(F)F)C(=O)N(C)CC(=O)N(C)CC(=O)N(C)[C@@H](CC2CCCCC2)C(=O)N(C)CC(=O)N[C@@H](CCc2ccc(C(F)(F)F)c(Cl)c2)C(=O)N2CCC[C@H]2C(=O)NC2(CCCC2)C(=O)N(C)[C@@H](C2CCCCC2)C(=O)N(C)[C@H](C(=O)N2CCCCC2)CC(=O)N1C [Compound 894] ([NMeL]S(Trifluoroethyl)[Sar][Sar][NMeCha][Sar][hPhe(3-Cl-4-CF3)]P[Ac5c][NMeChg][NMeD]-Piperidide; lactam N-11)", 7.96),
]
